Please respond with reported Internalization %, MCF-7, 0.25 µg/ml, 1 h for every item in the list.
# subject_of_test: T1, human Trop-2 expressed on cell surface (human, UniProt P09758 27-323)
# T1 sequence (looked up): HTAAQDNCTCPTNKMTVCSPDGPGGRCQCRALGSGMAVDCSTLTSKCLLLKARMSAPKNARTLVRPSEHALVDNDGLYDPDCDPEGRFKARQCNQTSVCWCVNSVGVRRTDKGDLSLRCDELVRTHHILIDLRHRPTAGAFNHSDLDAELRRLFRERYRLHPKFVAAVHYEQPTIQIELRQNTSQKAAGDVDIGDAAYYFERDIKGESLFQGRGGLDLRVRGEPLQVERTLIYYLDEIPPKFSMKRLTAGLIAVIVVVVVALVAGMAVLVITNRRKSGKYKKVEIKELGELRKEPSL
# measurement_protocol: cell-based or functional assay
Kindly provide the numeric value in % only, without the unit symbol.

// recorded Internalization %, MCF-7, 0.25 µg/ml, 1 h for 9D7-2 (antibody, V domains shown) VH: QSLEESGGDLVQPGASLTLTCKASGFDLNNYSILWVRQAPGKGLEWIGSIYISGGSTYYANWAKGRFAISKTSSTTVTLQMTSLTAADTATYFCARDDGTASYYLNLWGPGTLVTVSS VL: YDMTQTPASVSEPVGGTVTIKCQASEDIYKLLAWYQQKPGQPPKLLIYAASDLESGVPSRFKGRGSGTDYTLTISDLEAADAATYYCQQAYTIGNIDNSFGGGTEVVVK : 29

// recorded Internalization %, MCF-7, 0.25 µg/ml, 1 h for 9D7 (antibody, V domains shown, Rabbit-derived clone; LEM construct: VH + rabbit IgG CH1 + human IgG1 CH2-CH3) VH: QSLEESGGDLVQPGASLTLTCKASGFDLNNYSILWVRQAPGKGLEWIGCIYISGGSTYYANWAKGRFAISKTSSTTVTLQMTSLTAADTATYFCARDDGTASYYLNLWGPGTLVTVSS VL: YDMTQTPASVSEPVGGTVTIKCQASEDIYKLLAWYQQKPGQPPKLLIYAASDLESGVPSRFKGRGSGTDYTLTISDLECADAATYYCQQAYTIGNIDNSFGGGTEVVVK : 42

// recorded Internalization %, MCF-7, 0.25 µg/ml, 1 h for 1D10 (antibody, V domains shown, Rabbit-derived clone; LEM construct: VH + rabbit IgG CH1 + human IgG1 CH2-CH3) VH: QEQLKESGGGLVQPGGSLTLSCKASGFDFNYYGVSWVRQAPGKGLEWIGYIYPAYHNTYYATWVNGRFTISSHNAQNTLYLQLNTLTAADTATYFCARDAGSTDYNLNLWGPGTLVTVSS VL: DVVMTQTPASVEVAVGGTVTIKCQASEDIESYLAWYQQKPGQPPRLLIYEASKLASGVSSRFSGGGYGTDFTLTISGVECADAATYYCHQALTIGNVDNPFGGGGEVVVK : 30

Data credit: patent US20250206841A1
